Molecular target: T1, human FSTL1 (construct not stated) (human, UniProt Q12841 21-308)
T1 construct: also called human FSTL1 antigen; FSTL1 (R&D Systems, Inc. Cat#1694-FN-050)
T1 sequence: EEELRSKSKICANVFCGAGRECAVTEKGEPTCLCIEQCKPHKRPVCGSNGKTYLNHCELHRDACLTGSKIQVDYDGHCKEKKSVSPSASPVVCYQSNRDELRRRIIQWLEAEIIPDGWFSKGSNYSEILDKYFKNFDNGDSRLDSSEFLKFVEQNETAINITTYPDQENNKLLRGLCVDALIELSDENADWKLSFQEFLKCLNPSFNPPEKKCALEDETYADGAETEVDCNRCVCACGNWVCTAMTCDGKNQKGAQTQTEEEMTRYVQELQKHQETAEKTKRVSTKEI
Experiment: SPR (Biacore T-200), captured antibody, human FSTL1 10 µg/ml; note: time not given here
Each entry below carries its recorded Dissociation amount (RU).
Quick reminder: number only, in RU, skip the unit.

BINDER | EXPERIMENTAL_ENDPOINT | UNIT_SPEC | READOUT_NUMBER
anti-FSTL1 antibody clone #5-3 (chicken-mouse chimeric antibody) (antibody, mouse IgG1, kappa, V domains shown) VH: AVTLDESGGGLQTPGGALSLVCKGSGFSFSSFNMFWVRQAPGKGLEWVAGIGKDGVPKYGAAVDGRATISKDNGQSTMRLQLNNLRAEDTGTYFCAKAAGGCSYDWCGIYAGDIDTWGHGTEVIVSS VL: ASTQPSSVSANPGETVKITCSGGSGYYYGWYQQKSPGSVPVTVIYNNNNRPSDIPSRFSGSKSGSTGTLTITGVRAEDEAVYYCGGYDNSGTGIFGAGTTLTVLG | Dissociation amount (RU) | RU | 8.8
anti-FSTL1 antibody clone #7-34 (chicken-mouse chimeric antibody) (antibody, mouse IgG1, kappa, V domains shown) VH: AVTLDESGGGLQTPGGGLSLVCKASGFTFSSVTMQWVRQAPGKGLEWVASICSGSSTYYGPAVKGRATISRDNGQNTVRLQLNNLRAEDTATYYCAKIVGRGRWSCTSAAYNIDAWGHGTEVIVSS VL: ASTQPSSVSANPGETVKITCSGGGNNYGWYQQKSPGSAPVTVIYYNNNRPSNIPSRFSGSTSGSTSTLTITGVQAEDEAVYYCGSYEGSTDSGIFGAGTTLTVLG | Dissociation amount (RU) | RU | 2.5
anti-FSTL1 antibody clone #8-4 (chicken-mouse chimeric antibody) (antibody, mouse IgG1, kappa, V domains shown) VH: AVTLDESGGGLQTPGGGLSLVCKGSGFTLSSFNMFWVRQAPGKGLEWVAGVGKDGGTAYGAAVDGRATISRDSGQSTVRLQLNNLRAEDTGTYFCAKAAGGCSYSWCGAYVGDLDAWGHGTEVIVSS VL: ASSQPSSVSANPGETVKITCSGGSGYYYGWYQQKSPGSAPVTVIYNNDNKPSDIPSRFSGSKSGSTGTLTITGVQVEDEAVYFCGGYDNSGTGIFGAGTTLTVLG | Dissociation amount (RU) | RU | 6.2
anti-FSTL1 antibody clone #8-8 (chicken-mouse chimeric antibody) (antibody, mouse IgG1, kappa, V domains shown) VH: AVTLDESGGGLQTPGGALSLVCKGSGFTFSSFNMFWVRQAPGKGLEWVAGIGKDGVPKYGAAVDGRATISKDNGQSTMRLQLNNLRAEDTGTYYCAKAAGGCSYGWCGAYTGDIDTWGHGTEVIVSS VL: ASTQPSSVSANPGEAVKITCSGGSGSYYGWYQQKSPGSAPVTVIYNNNQRPSDIPSRFSGSKSGSTATLTITGVQVEDEAVYFCGGYDSSTGHGGIFGAGTTLTVLG | Dissociation amount (RU) | RU | 4.7

Read the next record carefully.
Data request: Which Dissociation amount (RU) value is on record for anti-FSTL1 antibody clone #10 (chicken-mouse chimeric antibody) (antibody, mouse IgG1, kappa, V domains shown) VH: AVTLDESGGGLQTPGGALSLVCKASGFFFFRIYDMGWVRQAPGKGLEWVAGIDDYGRYTGYGSAVKGRATISRDNGQSTVRLQLNNLRAEDTGTYYCARGAGTGCNSAGCGAYAGSIDAWGHGTEVIVSS VL: ASTQPSSVSANPGETVKLTCSGGGSRYGWYQQKSPGSAPVTVIYYNDKRPSDIPSRFSGSKSGSTATLTITGVQAEDEAVYFCGGYDGSRDAGIFGAGTTLTVLG ?
Data returned: 6

Where these numbers come from: patent US20180021429A1
